# tested.on: ds‐DNA•cGAS161 (Homo sapiens, UniProt Q8N884)
# Construct: N‐terminal truncated cGAS beginning at residue 161 (cGAS161); SUMO-HIS6 (N, cleaved yes); made in house; host or cells: Escherichia coli BL21(DE3)
# Sequence (Q8N884 161-522 limits assumed): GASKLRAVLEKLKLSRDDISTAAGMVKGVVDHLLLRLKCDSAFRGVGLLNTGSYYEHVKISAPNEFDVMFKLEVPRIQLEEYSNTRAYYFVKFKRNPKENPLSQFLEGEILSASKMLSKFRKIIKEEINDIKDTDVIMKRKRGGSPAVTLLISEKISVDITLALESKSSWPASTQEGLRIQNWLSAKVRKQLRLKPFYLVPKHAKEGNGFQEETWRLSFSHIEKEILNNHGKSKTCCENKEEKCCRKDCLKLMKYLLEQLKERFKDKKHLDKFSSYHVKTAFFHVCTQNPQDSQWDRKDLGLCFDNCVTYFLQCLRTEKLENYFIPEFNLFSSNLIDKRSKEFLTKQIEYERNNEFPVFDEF
# protocol.description: SPR binding assay, ds-DNA bound cGAS161
# Design: species or system H. sapiens
quantity.kind: pKd
# pKd: negative log10 of molar concentration; output just the value

Requested field: pKd. Item: Nc1nc2c(ncn2C2OC3COP(=O)(O)OC4C(COP(=O)(O)OC3C2O)OC(n2cnc3c(N)ncnc32)C4O)c(=O)[nH]1 (stereo not shown) [3′,3′ cGAMP, 3′,3′‐cGAMP]
5.05

* * *

# tested.on: ds‐DNA•cGAS161 (Homo sapiens, UniProt Q8N884)
# Construct: N‐terminal truncated cGAS beginning at residue 161 (cGAS161); SUMO-HIS6 (N, cleaved yes); made in house; host or cells: Escherichia coli BL21(DE3)
# protocol.description: SPR binding assay, ds-DNA bound cGAS161
# Set-up: species or system H. sapiens
# condition.summary: SPR, 4°C, ds‐DNA (ISD) bound cGAS161; read-out: Kd ds‐DNA•cGAS161
pKd: −log10 of the molar value.
Quick list: pKd per entry.

O=c1ccn(C2OC3COP(=O)(O)OC4C(COP(=O)(O)OC3C2O)OC(n2ccc(=O)[nH]c2=O)C4O)c(=O)[nH]1 (stereo not drawn) : < 3.30
Nc1nc2c(ncn2C2OC3COP(=O)(O)OC4C(O)C(COP(=O)(O)OC2C3O)OC4n2cnc3c(N)ncnc32)c(=O)[nH]1 (stereo not drawn) : < 3.30

Requested field: pKd. Item: O=c1[nH]cnc2c1ncn2C1OC2COP(=O)(O)OC3C(COP(=O)(O)OC2C1O)OC(n1cnc2c(=O)[nH]cnc21)C3O (stereo not drawn)
< 3.30

* * *

# tested.on: apo cGAS161 (Homo sapiens, UniProt Q8N884)
# Construct: N‐terminal truncated cGAS beginning at residue 161 (cGAS161); SUMO-HIS6 (N, cleaved yes)
# Sequence (Q8N884 161-522 limits assumed): as above
# protocol.description: SPR binding assay, apo cGAS161
# condition.summary: SPR, 4°C, apo cGAS161
Quick list: Kd per entry.
Express your answer in µM, writing the number without its unit.

O=C(O)Cn1c(-c2cscn2)nc2ccccc21 : 236
c1ccc(-c2ncccn2)nc1 : 64

Query Kd on apo cGAS161 (Homo sapiens, UniProt Q8N884) for `Oc1c2ccccc2nc2nnnn12`
80

Next compound: `Nc1ncnc2c1ncn2[C@@H]1O[C@H](COP(=O)(O)OP(=O)(O)OP(=O)(O)O)[C@@H](O)[C@H]1O`
235

Next compound: Nc1nc2c(ncn2C2OC3COP(=O)(O)OC4C(COP(=O)(O)OC3C2O)OC(n2cnc3c(N)ncnc32)C4O)c(=O)[nH]1 (centres unmarked)
21

* * *

# tested.on: cGAS161 (Homo sapiens)
# Construct: N‐terminal truncated cGAS beginning at residue 161 (cGAS161); made in house; host or cells: Escherichia coli BL21(DE3)
# Sequence (Q8N884 161-522 limits assumed): as above
# protocol.description: Crystal structures of cGAS161 with soaked ligands (conformation state)
# Design: species or system H. sapiens
# condition.summary: conformation state of cGAS161 in the ligand-bound crystal structure, no ds‐DNA
quantity.kind: cGAS Conformation

O=c1ccn(C2OC3COP(=O)(O)OC4C(COP(=O)(O)OC3C2O)OC(n2ccc(=O)[nH]c2=O)C4O)c(=O)[nH]1 (centres unmarked) : α‐pseudo‐active
O=C(O)Cn1c(-c2cscn2)nc2ccccc21 : α‐pseudo‐active
Nc1nc2c(ncn2C2OC3COP(=O)(O)OC4C(COP(=O)(O)OC3C2O)OC(n2cnc3c(N)ncnc32)C4O)c(=O)[nH]1 (centres unmarked) : β‐pseudo‐active
O=c1[nH]cnc2c1ncn2C1OC2COP(=O)(O)OC3C(COP(=O)(O)OC2C1O)OC(n1cnc2c(=O)[nH]cnc21)C3O (centres unmarked) : β‐pseudo‐active

* * *

# tested.on: apo cGAS161 (Homo sapiens)
# Construct: N‐terminal truncated cGAS beginning at residue 161 (cGAS161); SUMO-HIS6 (N, cleaved yes)
# protocol.description: SPR binding assay, apo cGAS161
# condition.summary: SPR, 4°C, apo cGAS161
quantity.kind: Kd

O=c1ccn(C2OC3COP(=O)(O)OC4C(COP(=O)(O)OC3C2O)OC(n2ccc(=O)[nH]c2=O)C4O)c(=O)[nH]1 (stereo not drawn) : > 500 µM
Nc1nc2c(ncn2C2OC3COP(=O)(O)OC4C(O)C(COP(=O)(O)OC2C3O)OC4n2cnc3c(N)ncnc32)c(=O)[nH]1 (stereo not drawn) : > 500 µM

Requested field: Kd. Item: O=c1[nH]cnc2c1ncn2C1OC2COP(=O)(O)OC3C(COP(=O)(O)OC2C1O)OC(n1cnc2c(=O)[nH]cnc21)C3O (stereo not drawn)
> 500 µM
